Taken from patent US20130116263A1.

# test system: PAK1 (Homo sapiens, UniProt Q13153)
# Sequence (Q13153 whole entry): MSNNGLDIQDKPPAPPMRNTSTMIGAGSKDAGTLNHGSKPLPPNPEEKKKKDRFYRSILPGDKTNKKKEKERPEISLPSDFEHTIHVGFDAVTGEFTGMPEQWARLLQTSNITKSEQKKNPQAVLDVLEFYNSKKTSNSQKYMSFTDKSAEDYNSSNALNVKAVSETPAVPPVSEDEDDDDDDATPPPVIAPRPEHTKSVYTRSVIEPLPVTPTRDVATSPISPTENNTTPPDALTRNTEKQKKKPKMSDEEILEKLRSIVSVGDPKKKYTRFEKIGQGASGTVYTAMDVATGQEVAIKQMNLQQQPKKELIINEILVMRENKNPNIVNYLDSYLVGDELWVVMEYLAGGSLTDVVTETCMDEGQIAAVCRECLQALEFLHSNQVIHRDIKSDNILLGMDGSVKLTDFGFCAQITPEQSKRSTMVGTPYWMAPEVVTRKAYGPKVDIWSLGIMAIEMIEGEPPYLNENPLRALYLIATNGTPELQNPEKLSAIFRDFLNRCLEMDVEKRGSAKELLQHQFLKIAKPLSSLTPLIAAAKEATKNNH
# experiment: Additional in vitro PAK1 inhibition assay at ATP 10 uM and 1 mM
# Type: biochemical
# condition parameters: 10 μM ATP; read-out: PAK1 IC50 (10 μM ATP)
# Experimental: Similar in vitro PAK1 and PAK-4 inhibition assays are conducted in compounds for the treatment of cancer, but under ATP concentrations of 10 uM and 1 mM.
pIC50: −log10 of the molar value.
Below is a list of entries, each paired with its recorded pIC50 value.

Sample records with pIC50:
CCNc1ncc2cc(-c3ccc(-c4noc(C)n4)cc3Cl)c(=O)n(CC)c2n1: 5.30 to 6.30
Cc1nc(-c2ccc(-c3cc4cnc(NC5CCOCC5)nc4n(CC(=O)N4CCCC(N)C4)c3=O)c(Cl)c2)no1 (stereo not drawn): 6.30 to 7.30
Cc1nc(-c2ccc(-c3cc4cnc(NC5CCOCC5)nc4n(Cc4ccc5c(c4)CNC5)c3=O)c(Cl)c2)no1: 6.30 to 7.30
CCn1c(=O)c(-c2ccc(-c3noc(C)n3)cc2Cl)cc2cnc(NC3(C)CC3)nc21: 5.30 to 6.30
Cc1nc(-c2ccc(-c3cc4cnc(NC5CCOCC5)nc4n(CC(=O)N4CCCC(CN)C4)c3=O)c(Cl)c2)no1 (stereo not drawn): 6.30 to 7.30

Turning now to a further molecule:
Request: Sample CCn1c(=O)c(-c2ccc(-c3noc(C)n3)cc2Cl)cc2cnc(NCc3ccccc3)nc21 — what was its pIC50?
Response: 5.30 to 6.30

###

# test system: PAK3 (Homo sapiens)
# experiment: In vitro PAK inhibition assay (Z'-LYTE, SelectScreen), PAK3
# Type: biochemical
# condition parameters: PAK3 IC50 (nM)
result type: IC50

Cc1nc(-c2ccc(-c3cc4cnc(NC5CCOCC5)nc4n(Cc4ccccc4C(F)(F)F)c3=O)c(Cl)c2)no1: 50 to 500 nM

Field: next molecule
Request: IC50 for CCn1c(=O)c(-c2ccc(-c3cncc(C)n3)cc2Cl)cc2cnc(NCCC3CCN(C)CC3)nc21 ?
Response: 50 to 500 nM

###

Quick reference for pIC50 among some compounds
# test system: PAK3 (Homo sapiens, UniProt O75914)
# Sequence (O75914 1-544 isoform O75914-2): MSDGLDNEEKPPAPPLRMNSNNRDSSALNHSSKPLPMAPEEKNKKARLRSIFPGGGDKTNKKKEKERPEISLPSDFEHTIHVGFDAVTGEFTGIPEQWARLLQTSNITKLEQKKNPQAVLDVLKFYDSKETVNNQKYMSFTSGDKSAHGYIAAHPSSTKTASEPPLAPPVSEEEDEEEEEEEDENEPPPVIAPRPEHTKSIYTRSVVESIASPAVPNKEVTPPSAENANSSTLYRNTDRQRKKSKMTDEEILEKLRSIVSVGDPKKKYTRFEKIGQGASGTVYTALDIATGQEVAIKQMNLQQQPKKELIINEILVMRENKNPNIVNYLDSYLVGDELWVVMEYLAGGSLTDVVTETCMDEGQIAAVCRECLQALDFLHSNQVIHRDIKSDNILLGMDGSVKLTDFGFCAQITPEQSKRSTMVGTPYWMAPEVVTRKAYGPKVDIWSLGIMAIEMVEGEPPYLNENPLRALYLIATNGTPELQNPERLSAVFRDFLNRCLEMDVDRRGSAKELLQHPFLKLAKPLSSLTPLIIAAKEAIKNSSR
# experiment: In vitro PAK inhibition assay (Z'-LYTE, SelectScreen), PAK3
# Type: biochemical
# condition parameters: read-out: PAK3 IC50
pIC50: −log10 of the molar value.

Example entries and their recorded answers appear below.
CCn1c(=O)c(-c2ccc(-c3nccnc3C)cc2Cl)cc2cnc(NC3C[C@@H](C)O[C@@H](C)C3)nc21 (stereo partly shown) [Example 38]: 6.30 to 7.30
Cc1cncc(-c2ccc(-c3cc4cnc(N[C@H]5CCOC5)nc4n(CCCN)c3=O)c(Cl)c2)n1 [Example 98]: > 7.30
CCn1c(=O)c(-c2ccc(-c3cncc(C)n3)cc2Cl)cc2cnc(NCCOCCN)nc21 [Example 128]: 6.30 to 7.30

# evaluate next
Request: Data request, read-out pIC50, for CCn1c(=O)c(-c2ccc(-c3cncc(C)n3)cc2Cl)cc2cnc(NC3CNC(=O)C3)nc21 (stereo not shown) [Example 66]
Response: 6.30 to 7.30

###

# pIC50 values compiled below
# test system: PAK1 (Homo sapiens)
# experiment: In vitro PAK inhibition assay (Z'-LYTE, SelectScreen), PAK1
# Format: biochemical
# condition parameters: read-out: PAK1 IC50
pIC50: −log10 of the molar value.

Answered examples (3):
CCn1c(=O)c(-c2ccc(-c3cncc(C)n3)cc2Cl)cc2cnc(N[C@H]3CCOC3)nc21: 6.30 to 7.30
Cc1nccnc1-c1ccc(-c2cc3cnc(NC4CC4)nc3n([C@H]3CC[C@H](N)CC3)c2=O)c(Cl)c1: > 7.30
CCn1c(=O)c(-c2ccc(-c3nccnc3C)cc2Cl)cc2cnc(NC3CCNC3)nc21 (stereo not shown): 6.30 to 7.30

Request: What value of pIC50 on PAK1 (Homo sapiens) does COCCCn1c(=O)c(-c2ccc(-c3cncc(C)n3)cc2Cl)cc2cnc(N[C@H]3CCOC3)nc21 have?
Response: > 7.30

###

# test system: PAK2 (PAK65) (Homo sapiens, UniProt Q13177)
# Sequence (Q13177 whole entry): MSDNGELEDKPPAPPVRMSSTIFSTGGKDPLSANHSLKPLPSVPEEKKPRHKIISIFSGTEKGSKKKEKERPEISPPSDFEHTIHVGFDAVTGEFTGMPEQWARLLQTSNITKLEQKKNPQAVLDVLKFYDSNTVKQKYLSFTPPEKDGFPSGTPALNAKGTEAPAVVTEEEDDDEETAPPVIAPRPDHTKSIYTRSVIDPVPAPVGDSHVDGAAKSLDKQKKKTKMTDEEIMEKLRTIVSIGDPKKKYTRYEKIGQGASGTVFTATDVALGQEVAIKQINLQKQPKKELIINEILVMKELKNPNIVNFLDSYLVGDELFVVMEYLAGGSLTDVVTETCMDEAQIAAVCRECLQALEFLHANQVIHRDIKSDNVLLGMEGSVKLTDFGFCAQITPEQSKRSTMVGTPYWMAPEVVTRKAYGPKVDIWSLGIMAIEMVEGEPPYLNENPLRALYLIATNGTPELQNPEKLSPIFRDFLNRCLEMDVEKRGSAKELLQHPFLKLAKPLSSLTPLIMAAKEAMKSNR
# experiment: In vitro PAK inhibition assay (Z'-LYTE, SelectScreen), PAK2
# Type: biochemical
# condition parameters: read-out: PAK2 IC50
pIC50: −log10 of the molar value.
Measured pIC50 of individual entries

Worked cases, answers included:
CCn1c(=O)c(-c2ccc(-c3cccnc3)cc2Cl)cc2cnc(NC3CCOCC3)nc21 [Example 44]: 6.30 to 7.30
Cc1nccnc1-c1ccc(-c2cc3cnc(N[C@H]4CCOC4)nc3n(Cc3ccccn3)c2=O)c(Cl)c1 [Example 125]: > 7.30
CCn1c(=O)c(-c2ccc(-c3cccnc3F)cc2Cl)cc2cnc(N[C@H]3CCOC3)nc21 [Example 41]: 6.30 to 7.30
Cc1nccnc1-c1ccc(-c2cc3cnc(NC4CCOCC4)nc3n(Cc3ccccc3)c2=O)c(Cl)c1 [Example 16]: > 7.30
Cc1cncc(-c2ccc(-c3cc4cnc(N[C@@H]5CCOC5)nc4n(CCN4CCCC4)c3=O)c(Cl)c2)n1 [Example 104]: 6.30 to 7.30

Request: For PAK2 (PAK65) (Homo sapiens, UniProt Q13177), provide pIC50 of CCn1c(=O)c(-c2ccc(-c3cccnc3F)cc2Cl)cc2cnc(NC3CCOC3)nc21 (stereo not drawn) [Example 39] please.
Response: 6.30 to 7.30

Request: Lab note: need pIC50 with PAK2 (PAK65) (Homo sapiens, UniProt Q13177) for entry CCn1c(=O)c(-c2ccc(-c3nccnc3C)cc2Cl)cc2cnc(N[C@H]3CCOC(C)(C)C3)nc21 (stereo in doubt) [Example 77] , please look it up.
Response: > 7.30

Request: Query pIC50 on PAK2 (PAK65) (Homo sapiens, UniProt Q13177) for CCn1c(=O)c(-c2ccc(-c3cncc(C)n3)cc2Cl)cc2cnc(NC3CNC(=O)C3)nc21 (stereo not drawn) [Example 66]
Response: > 7.30

Request: Record lookup: for PAK2 (PAK65) (Homo sapiens, UniProt Q13177), what pIC50 belongs to Cc1nc(-c2ccc(-c3cc4cnc(NC5CCOCC5)nc4[nH]c3=O)c(Cl)c2)no1 [Example 11] ?
Response: 6.30 to 7.30

###

# test system: PAK2 (PAK65) (Homo sapiens)
# experiment: In vitro PAK inhibition assay (Z'-LYTE, SelectScreen), PAK2
# Type: biochemical
result type: IC50

Request: Returns the measured IC50 for the input compound. Input: Cc1nc(-c2ccc(-c3cc4cnc(NC5CCOCC5)nc4n(Cc4ccccc4C(F)(F)F)c3=O)c(Cl)c2)no1
Response: 50 to 500 nM

###

molecules and their reported pIC50
# test system: PAK1 (Homo sapiens, UniProt Q13153)
# experiment: Additional in vitro PAK1 inhibition assay at ATP 10 uM and 1 mM
# Format: biochemical
# condition parameters: 1 mM ATP; read-out: PAK1 IC50 (1 mM ATP)
pIC50: −log10 of the molar value.

CCn1c(=O)c(-c2ccc(-c3noc(C)n3)cc2Cl)cc2cnc(NCCCO)nc21: ≤ 5.30
Cc1nc(-c2ccc(-c3cc4cnc(NC5CCOCC5)nc4n(CC(=O)NCc4ccncc4)c3=O)c(Cl)c2)no1 [drawing 348]: ≤ 5.30
CCN1CCC(CCNc2ncc3cc(-c4ccc(-c5noc(C)n5)cc4Cl)c(=O)n(CC)c3n2)CC1: 5.30 to 6.30

// below: pIC50 requested for another molecule
Request: Suppose we examine the molecule Cc1nc(-c2ccc(-c3cc4cnc(NC5CC5)nc4n(Cc4cccc(CN)c4)c3=O)c(Cl)c2)no1 ; what pIC50 value has been reported?
Response: 5.30 to 6.30

###

# test system: PAK1 (Homo sapiens)
# experiment: In vitro PAK inhibition assay (Z'-LYTE, SelectScreen), PAK1
# Type: biochemical
# condition parameters: read-out: PAK1 IC50
Let's look at some compounds and their measured IC50.

The examples below pair each entry with its known result.
CCn1c(=O)c(-c2cc(C)c(-c3cncc(C)n3)cc2Cl)cc2cnc(N[C@H]3CCOC3)nc21: < 50 nM
CCn1c(=O)c(-c2ccc(-c3nccnc3C)cc2Cl)cc2cnc(NC3C[C@@H](C)O[C@@H](C)C3)nc21 (stereo partly drawn): < 50 nM
CCn1c(=O)c(-c2ccc(-c3nccnc3C)cc2Cl)cc2cnc(NC3CCOC(C)(C)C3)nc21 (racemic): < 50 nM

Request: Quick one: IC50 for CCn1c(=O)c(-c2ccc(-c3nccnc3C)cc2Cl)cc2cnc(NCCC3CCN(C)CC3)nc21 ?
Response: < 50 nM

###

Form field: IC50 (one value per entry).
# test system: PAK4 (Homo sapiens)
# Sequence (O96013 whole entry): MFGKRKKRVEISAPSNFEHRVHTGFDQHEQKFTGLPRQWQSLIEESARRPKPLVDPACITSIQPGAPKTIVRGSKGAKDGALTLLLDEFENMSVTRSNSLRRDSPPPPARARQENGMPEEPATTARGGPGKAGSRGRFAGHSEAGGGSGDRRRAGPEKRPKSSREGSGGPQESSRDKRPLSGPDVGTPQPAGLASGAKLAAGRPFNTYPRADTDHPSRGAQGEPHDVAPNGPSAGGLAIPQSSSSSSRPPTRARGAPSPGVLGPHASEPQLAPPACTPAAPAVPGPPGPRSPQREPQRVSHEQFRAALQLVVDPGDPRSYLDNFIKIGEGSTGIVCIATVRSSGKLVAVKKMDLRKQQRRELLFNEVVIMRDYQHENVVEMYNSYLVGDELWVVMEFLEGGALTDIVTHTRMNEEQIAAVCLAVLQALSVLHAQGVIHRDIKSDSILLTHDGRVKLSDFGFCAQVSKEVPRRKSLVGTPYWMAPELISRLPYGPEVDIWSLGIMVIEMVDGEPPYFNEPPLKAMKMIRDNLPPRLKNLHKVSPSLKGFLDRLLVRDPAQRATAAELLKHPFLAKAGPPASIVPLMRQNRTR
# experiment: In vitro PAK inhibition assay (Z'-LYTE, SelectScreen), PAK4
# Assay type: biochemical

Some compounds with recorded IC50:
CCn1c(=O)c(-c2ccc(-c3cncc(C)n3)cc2Cl)cc2cnc(NC3CCOC3)nc21 (stereo not shown) [Example 29]: > 5 µM
CCn1c(=O)c(-c2ccc(-c3nccnc3C)cc2Cl)cc2cnc(NC3CCN(C(C)=O)C3)nc21 (stereo not shown) [Example 19]: > 5 µM
O=c1c(-c2ccc(-c3ccncn3)cc2Cl)cc2cnc(NC3CCOCC3)nc2n1Cc1ccccc1C(F)(F)F [Example 23]: > 5 µM

Request: Could you share which IC50 value was measured for CCn1c(=O)c(-c2ccc(-c3cncc(C)n3)cc2Cl)cc2cnc(N[C@@H]3CCOC3)nc21 [Example 28] ?
Response: > 5 µM

Request: Record request: IC50 value, item CCn1c(=O)c(-c2ccc(-c3nccnc3C)cc2Cl)cc2cnc(NCCC3CCNCC3)nc21 [Example 136]
Response: > 5 µM

Request: Endpoint output: IC50 of CCn1c(=O)c(-c2ccc(-c3cncc(C)n3)cc2Cl)cc2cnc(NC3CCC(CCN(C)C)CC3)nc21 (stereo not shown) [Example 70] . Value?
Response: > 5 µM

Request: # query: IC50 of entry CCn1c(=O)c(-c2ccc(-c3cncc(C)n3)cc2Cl)cc2cnc(NCC3CCC(N)CC3)nc21 (stereo not shown) [Example 131]
Response: > 5 µM

Request: Consider the compound CCn1c(=O)c(-c2ccc(-c3cncc(C)n3)cc2Cl)cc2cnc(NCCOCCN)nc21 [Example 128] and give its measured IC50.
Response: > 5 µM

Request: What measured IC50 goes with CCn1c(=O)c(-c2ccc(-c3cccnc3C)cc2Cl)cc2cnc(NC3CCOCC3)nc21 [Example 45] ?
Response: > 5 µM

Request: Data request, read-out IC50, for Cc1cncc(-c2ccc(-c3cc4cnc(N[C@H]5CCOC5)nc4n(CCCN(C)C)c3=O)c(Cl)c2)n1 [Example 102]
Response: > 5 µM

Request: Dear colleague, I am looking for the recorded IC50 of the following compound: Cc1cncc(-c2ccc(-c3cc4cnc(NC5CCOCC5)nc4n(Cc4ccccc4F)c3=O)c(Cl)c2)n1 [Example 36]
Response: > 5 µM
